Species on record: Rattus norvegicus
Test: DrugMatrix - Regimen: Daily Repeat
Type: toxicity, organism-based, Sprague-Dawley
Set-up: regimen Daily Repeat, gender Male, age 6-8 weeks
Conditions: in vivo, po, 0 mg/kg, 120 h, tissue Blood, route oral GAVAGE, dose level Control, time 5 day, vehicle .5 % CMC
# MEAN CORPUSCULAR HEMOGLOBIN values compiled below
Reply with just the number (in pg).

Consider the following illustrative entries.
> print(dat)
                                   molecule  unit.name  observed.value
1  CN(C)CCC=C1c2ccccc2COc2ccccc21 [DOXEPIN]         pg           24.37
2  Cl.NC[C@H]1CC[C@H](C(=O)Oc2ccc(CCC(=O)O)cc2)CC1 [CETRAXATE HYDROCHLORIDE]         pg           24.12
3  COc1ccc(Cl)cc1C(=O)NCCc1ccc(S(=O)(=O)NC(=O)NC2CCCCC2)cc1 [GLYBURIDE]         pg           24.25
4  CCN(CC)CCNC(=O)c1cc(Cl)c(N)cc1OC [METOCLOPRAMIDE]         pg           21.96
5             CC(=O)Nc1ccc2c(c1)Cc1ccccc1-2         pg           23.95

Turning now to a further molecule:
**Q:** Give the reported value of MEAN CORPUSCULAR HEMOGLOBIN for this record: Cc1cc2c(s1)Nc1ccccc1N=C2N1CCN(C)CC1
**A:** 24.48

----------
# URIC ACID values compiled below
Organism: Rattus norvegicus
Test: DrugMatrix - Regimen: Daily Repeat
Format: toxicity, organism-based, Sprague-Dawley
Parameters: regimen Daily Repeat, gender Male, age 6-8 weeks
Conditions: in vivo, po, 0 mg/kg, 72 h, tissue Plasma, route oral GAVAGE, dose level Control, time 3 day, […]
Reply with just the number (in mg/dL).

Consider the following illustrative entries.
> print(dat)
                                   compound  assay.endpoint  observed.value
1   COC(=O)Nc1nc2ccc(C(=O)c3ccccc3)cc2[nH]1       URIC ACID             0.7
2  COc1ccccc1OCCNCC(O)COc1cccc2[nH]c3ccccc3c12 (centres undefined)       URIC ACID             0.7
3     O=C(O)COC(=O)Cc1ccccc1Nc1c(Cl)cccc1Cl       URIC ACID             0.7

Turning now to a further compound:
**Q:** Give the reported value of URIC ACID for this record: CC(C)(c1ccc(O)cc1)c1ccc(O)cc1
**A:** 0.68

----------
# CHOLESTEROL values compiled below
Species: Rattus norvegicus
Experiment: DrugMatrix - Regimen: Daily Repeat
Format: toxicity, organism-based, Sprague-Dawley
Parameters: regimen Daily Repeat, gender Male, age 6-8 weeks
Conditions: in vivo, po, 0 mg/kg, 120 h, tissue Plasma, route oral GAVAGE, dose level Control, time 5 day, vehicle .5 % CMC
Reply with just the number (in mg/dL).

Consider the following illustrative entries.
> print(dat)
                                   compound  observed.value
1  O=C(O)CCc1nc(-c2ccccc2)c(-c2ccccc2)o1 [OXAPROZIN]              71
2  Cl.NC[C@H]1CC[C@H](C(=O)Oc2ccc(CCC(=O)O)cc2)CC1 [CETRAXATE HYDROCHLORIDE]            71.5
3  CCN1CCCC1CNC(=O)c1cc(S(N)(=O)=O)ccc1OC (stereo unspecified) [SULPIRIDE]              71
4                          NC(=O)CN1CCCC1=O           71.33
5  Cc1cc2c(s1)Nc1ccccc1N=C2N1CCN(C)CC1 [OLANZAPINE]           69.83

**Q:** Give the reported value of CHOLESTEROL for this record: COc1cc(/C=C/C(=O)O)ccc1O [FERULATE]
**A:** 71.5

----------
Species: Rattus norvegicus
Experiment: DrugMatrix - Regimen: Daily Repeat
Assay type: toxicity, organism-based, Sprague-Dawley
Set-up: regimen Daily Repeat, gender Male, age 6-8 weeks
Conditions: in vivo, po, 0 mg/kg, 120 h, tissue Blood, route oral GAVAGE, dose level Control, time 5 day, vehicle .5 % CMC
# MEAN CORPUSCULAR HEMOGLOBIN CONCENTRATION values compiled below
Reply with just the number (in G/DL).

> print(dat)
                                   compound  observed.value
1       NC(=O)NC(=O)Cc1ccccc1 [PHENACEMIDE]           38.18
2  NCC(CC(=O)O)c1ccc(Cl)cc1 (configuration not stated)            38.9
3  CC(C)NCC(O)COc1ccc(CC(N)=O)cc1 (configuration not stated)           40.32
4  CC(C)(C#N)c1cc(Cn2cncn2)cc(C(C)(C)C#N)c1           39.55

**Q:** Give the reported value of MEAN CORPUSCULAR HEMOGLOBIN CONCENTRATION for this record: Cc1cc2c(s1)Nc1ccccc1N=C2N1CCN(C)CC1
**A:** 39.22

**Q:** Give the reported value of MEAN CORPUSCULAR HEMOGLOBIN CONCENTRATION for this record: CC(=O)Nc1ccc2c(c1)Cc1ccccc1-2
**A:** 38.9

**Q:** Give the reported value of MEAN CORPUSCULAR HEMOGLOBIN CONCENTRATION for this record: CCN1CCCC1CNC(=O)c1cc(S(N)(=O)=O)ccc1OC (configuration not stated) [SULPIRIDE]
**A:** 40.43

----------
Species on record: Rattus norvegicus
Assay: DrugMatrix - Regimen: Daily Repeat
Assay type: toxicity, organism-based, Sprague-Dawley
Design: regimen Daily Repeat, gender Male, age 6-8 weeks
Details: in vivo, po, 0 mg/kg, 120 h, tissue Plasma, route oral GAVAGE, dose level Control, time 5 day, […]
Assay Endpoint: ALKALINE PHOSPHATASE (u/L)
Reply with just the number (in u/L).

**Q:** Give the reported value of ALKALINE PHOSPHATASE for this record: CS(=O)(=O)c1ccc(C2=C(c3ccccc3)C(=O)OC2)cc1
**A:** 359.83

**Q:** Give the reported value of ALKALINE PHOSPHATASE for this record: COC(=O)Nc1nc2ccc(C(=O)c3ccccc3)cc2[nH]1
**A:** 425.67

**Q:** Give the reported value of ALKALINE PHOSPHATASE for this record: O=C(O)COC(=O)Cc1ccccc1Nc1c(Cl)cccc1Cl
**A:** 425.67

**Q:** Give the reported value of ALKALINE PHOSPHATASE for this record: O=C(Nc1ccc(Cl)c(Cl)c1)c1cc(Cl)cc(Cl)c1O [3,3',4',5-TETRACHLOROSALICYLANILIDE]
**A:** 414.17

**Q:** Give the reported value of ALKALINE PHOSPHATASE for this record: CCOC(=O)C1=C(C)NC(C)=C(C(=O)OCC)C1c1ccccc1/C=C/C(=O)OC(C)(C)C
**A:** 492.67

----------
Species: Rattus norvegicus
Assay: DrugMatrix - Regimen: Daily Repeat
Format: toxicity, organism-based, Sprague-Dawley
Set-up: regimen Daily Repeat, gender Male, age 6-8 weeks
Details: in vivo, po, 0 mg/kg, 120 h, tissue Plasma, route oral GAVAGE, dose level Control, time 5 day, vehicle .5 % CMC
# ALBUMIN values compiled below
Reply with just the number (in G/DL).

Consider the following illustrative entries.
> print(dat)
                                   molecule  unit.name  observed.value
1  NCC(CC(=O)O)c1ccc(Cl)cc1 (stereo not drawn)       G/DL             4.2
2               O=C1c2ccccc2C(=O)C1c1ccccc1       G/DL            3.72

Turning now to a further molecule:
**Q:** Give the reported value of ALBUMIN for this record: CC(=O)Nc1ccc2c(c1)Cc1ccccc1-2
**A:** 4.2

----------
Species on record: Rattus norvegicus
Experiment: DrugMatrix - Regimen: Daily Repeat
Type: toxicity, organism-based, Sprague-Dawley
Design: regimen Daily Repeat, gender Male, age 6-8 weeks
Conditions: in vivo, po, 0 mg/kg, 72 h, tissue Plasma, route oral GAVAGE, dose level Control, time 3 day, vehicle .5 % CMC
# ALKALINE PHOSPHATASE values compiled below
Reply with just the number (in u/L).

> print(dat)
                                    compound  observed.value
 1       COc1cc(/C=C/C(=O)O)ccc1O [FERULATE]          388.83
 2  CN(C)CCC=C1c2ccccc2COc2ccccc21 [DOXEPIN]             372
 3  NCC(CC(=O)O)c1ccc(Cl)cc1 (centres undefined)          346.83
 4  COc1cc(NC(C)CCCN)c2ncccc2c1 (centres undefined)          391.33
 5     O=C(O)CCc1nc(-c2ccccc2)c(-c2ccccc2)o1           378.5
 6                          NC(=O)CN1CCCC1=O           449.5
 7  CN(C)CCOC(c1ccccc1)c1ccccc1.Cn1c(=O)c2[nH]c(Cl)nc2n(C)c1=O [DIMENHYDRINATE]          427.67
 8  CC(C)(C#N)c1cc(Cn2cncn2)cc(C(C)(C)C#N)c1           374.5
 9       Cc1cc2c(s1)Nc1ccccc1N=C2N1CCN(C)CC1           398.5
10  CCN1CCN(c2cc3c(cc2F)c(=O)c(C(=O)O)cn3C2CC2)CC1          283.83

**Q:** Give the reported value of ALKALINE PHOSPHATASE for this record: CCN(CC)CCNC(=O)c1cc(Cl)c(N)cc1OC [METOCLOPRAMIDE]
**A:** 283.83

**Q:** Give the reported value of ALKALINE PHOSPHATASE for this record: O=C1c2ccccc2C(=O)C1c1ccccc1
**A:** 388.17

**Q:** Give the reported value of ALKALINE PHOSPHATASE for this record: CC(=O)Nc1ccc2c(c1)Cc1ccccc1-2
**A:** 346.83

**Q:** Give the reported value of ALKALINE PHOSPHATASE for this record: COc1ccc(Cl)cc1C(=O)NCCc1ccc(S(=O)(=O)NC(=O)NC2CCCCC2)cc1 [GLYBURIDE]
**A:** 370.17
